# Assay explanation: Animal biodistribution (in vivo, i.v. injection)
# Assay conditions: rats, 60 min p.i., muscle taken as 43% of body weight

{"Molecule": "O=[N][99Tc-]([Cl])([Cl])([Cl])[Cl] [[^99m TcNOCl4]^-]", "Muscle, % injected dose/organ [% injected dose/organ]": 30.41}
{"Molecule": "CP(C)CCP(C)C.CP(C)CCP(C)C.N#[O+].[99Tc+].[Cl-].[Cl-]", "Muscle, % injected dose/organ [% injected dose/organ]": 14.10}
{"Molecule": "O=[N][99Tc]([Cl])([Cl])[Cl].c1ccc(-c2ccccn2)nc1 [[^99 Tc(NO)Cl3 (Bipy)]]", "Muscle, % injected dose/organ [% injected dose/organ]": 18.95}
{"Molecule": "CC(=O)C=C(C)[O][99Tc-]([Cl])([Cl])([Cl])[N]=O [[^99 Tc(NO)Cl3 (acac)]^-]", "Muscle, % injected dose/organ [% injected dose/organ]": 14.37}
{"Molecule": "O=[N][Tc+][Cl].[C-]#[N+]C(C)(C)C.[C-]#[N+]C(C)(C)C.[C-]#[N+]C(C)(C)C.[C-]#[N+]C(C)(C)C [[^99 Tc(NO)Cl(t-BuCN)4]^+]", "Muscle, % injected dose/organ [% injected dose/organ]": 18.30}
{"Molecule": "O=[N][99Tc]1([Cl])([Cl])([Cl])[N]2C=CC=c3ccc4c(c32)[N]1C=CC=4 [[^99 Tc(NO)(1,10 phen)Cl3]°]", "Muscle, % injected dose/organ [% injected dose/organ]": 17.02}

====

# Assay explanation: Animal biodistribution (in vivo, i.v. injection)
# Assay conditions: rats, 60 min p.i.
Reported values of Heart/Muscle Counts/Gram ratio for individual entries

{"Compound": "CC(=O)C=C(C)[O][99Tc-]([Cl])([Cl])([Cl])[N]=O [[^99 Tc(NO)Cl3 (acac)]^-]", "Heart/Muscle Counts/Gram ratio": 1.84}
{"Compound": "O=[N][99Tc-]([Cl])([Cl])([Cl])[Cl] [[^99m TcNOCl4]^-]", "Heart/Muscle Counts/Gram ratio": 1.66}
{"Compound": "O=[N][99Tc]([Cl])([Cl])[Cl].c1ccc(-c2ccccn2)nc1 [[^99 Tc(NO)Cl3 (Bipy)]]", "Heart/Muscle Counts/Gram ratio": 2.02}
{"Compound": "CP(C)CCP(C)C.CP(C)CCP(C)C.N#[O+].[99Tc+].[Cl-].[Cl-]", "Heart/Muscle Counts/Gram ratio": 2.34}
{"Compound": "O=[N][99Tc]1([Cl])([Cl])([Cl])[N]2C=CC=c3ccc4c(c32)[N]1C=CC=4 [[^99 Tc(NO)(1,10 phen)Cl3]°]", "Heart/Muscle Counts/Gram ratio": 4.68}

====

# Assay explanation: Animal biodistribution (in vivo, i.v. injection)
# Assay conditions: rats, 60 min p.i.
Reported values of Heart, % injected dose/organ for individual entries

{"Molecule": "CP(C)CCP(C)C.CP(C)CCP(C)C.N#[O+].[99Tc+].[Cl-].[Cl-]", "Reading unit": "% injected dose/organ", "Heart, % injected dose/organ": 0.30}
{"Molecule": "CC(=O)C=C(C)[O][99Tc-]([Cl])([Cl])([Cl])[N]=O [[^99 Tc(NO)Cl3 (acac)]^-]", "Reading unit": "% injected dose/organ", "Heart, % injected dose/organ": 0.23}
{"Molecule": "O=[N][99Tc-]([Cl])([Cl])([Cl])[Cl] [[^99m TcNOCl4]^-]", "Reading unit": "% injected dose/organ", "Heart, % injected dose/organ": 0.42}
{"Molecule": "O=[N][99Tc]([Cl])([Cl])[Cl].c1ccc(-c2ccccn2)nc1 [[^99 Tc(NO)Cl3 (Bipy)]]", "Reading unit": "% injected dose/organ", "Heart, % injected dose/organ": 0.30}
{"Molecule": "O=[N][99Tc]1([Cl])([Cl])([Cl])[N]2C=CC=c3ccc4c(c32)[N]1C=CC=4 [[^99 Tc(NO)(1,10 phen)Cl3]°]", "Reading unit": "% injected dose/organ", "Heart, % injected dose/organ": 0.29}
{"Molecule": "O=[N][Tc+][Cl].[C-]#[N+]C(C)(C)C.[C-]#[N+]C(C)(C)C.[C-]#[N+]C(C)(C)C.[C-]#[N+]C(C)(C)C [[^99 Tc(NO)Cl(t-BuCN)4]^+]", "Reading unit": "% injected dose/organ", "Heart, % injected dose/organ": 1.37}

====

# Assay explanation: Animal biodistribution (in vivo, i.v. injection)
# Assay conditions: rats, 60 min p.i., blood taken as 5.8% of body weight
Reported values of Blood, % injected dose/organ for individual entries

{"Molecule": "O=[N][99Tc]([Cl])([Cl])[Cl].c1ccc(-c2ccccn2)nc1 [[^99 Tc(NO)Cl3 (Bipy)]]", "Blood, % injected dose/organ, % injected dose/organ": 2.02}
{"Molecule": "CC(=O)C=C(C)[O][99Tc-]([Cl])([Cl])([Cl])[N]=O [[^99 Tc(NO)Cl3 (acac)]^-]", "Blood, % injected dose/organ, % injected dose/organ": 2.00}
{"Molecule": "O=[N][99Tc-]([Cl])([Cl])([Cl])[Cl] [[^99m TcNOCl4]^-]", "Blood, % injected dose/organ, % injected dose/organ": 14.94}
{"Molecule": "O=[N][99Tc]1([Cl])([Cl])([Cl])[N]2C=CC=c3ccc4c(c32)[N]1C=CC=4 [[^99 Tc(NO)(1,10 phen)Cl3]°]", "Blood, % injected dose/organ, % injected dose/organ": 3.49}
{"Molecule": "CP(C)CCP(C)C.CP(C)CCP(C)C.N#[O+].[99Tc+].[Cl-].[Cl-]", "Blood, % injected dose/organ, % injected dose/organ": 1.02}

====

# Assay explanation: Animal biodistribution (in vivo, i.v. injection)
# Assay conditions: rats, 2 min p.i.
Reported values of Heart/Lung Counts/Gram ratio for individual entries

{"Compound": "CCCP(C)CCP(C)CCC.CCCP(C)CC[P](C)(CCC)[99Tc+]([Cl])[N]=O (stereo not drawn) [[^99m Tc(NO) × (PMPE)2]^+]", "Heart/Lung Counts/Gram ratio": 1.0}
{"Compound": "O=[N][99Tc]([Cl])([Cl])[Cl].c1ccc(-c2ccccn2)nc1 [[^99 Tc(NO)Cl3 (Bipy)]]", "Heart/Lung Counts/Gram ratio": 1.30}
{"Compound": "O=[N][99Tc]1([Cl])([Cl])([Cl])[N]2C=CC=c3ccc4c(c32)[N]1C=CC=4 [[^99 Tc(NO)(1,10 phen)Cl3]°]", "Heart/Lung Counts/Gram ratio": 1.55}
{"Compound": "CP(C)CCP(C)C.CP(C)CCP(C)C.N#[O+].[99Tc+].[Cl-].[Cl-]", "Heart/Lung Counts/Gram ratio": 0.71}
{"Compound": "CC(=O)C=C(C)[O][99Tc-]([Cl])([Cl])([Cl])[N]=O [[^99 Tc(NO)Cl3 (acac)]^-]", "Heart/Lung Counts/Gram ratio": 1.12}
{"Compound": "O=[N][Tc+][Cl].[C-]#[N+]C(C)(C)C.[C-]#[N+]C(C)(C)C.[C-]#[N+]C(C)(C)C.[C-]#[N+]C(C)(C)C [[^99 Tc(NO)Cl(t-BuCN)4]^+]", "Heart/Lung Counts/Gram ratio": 3.34}

====

# Assay explanation: Animal biodistribution (in vivo, i.v. injection)
# Assay conditions: rats, 2 min p.i.
Friendly reminder: Heart/Blood Counts/Gram ratio below 2 is Condition met, at or above is Condition not met.

{"Compound": "CP(C)CCP(C)C.CP(C)CCP(C)C.N#[O+].[99Tc+].[Cl-].[Cl-]", "Classification": "Condition met"}
{"Compound": "CC(=O)C=C(C)[O][99Tc-]([Cl])([Cl])([Cl])[N]=O [[^99 Tc(NO)Cl3 (acac)]^-]", "Classification": "Condition not met"}
{"Compound": "O=[N][99Tc]1([Cl])([Cl])([Cl])[N]2C=CC=c3ccc4c(c32)[N]1C=CC=4 [[^99 Tc(NO)(1,10 phen)Cl3]°]", "Classification": "Condition met"}
{"Compound": "O=[N][99Tc-]([Cl])([Cl])([Cl])[Cl] [[^99m TcNOCl4]^-]", "Classification": "Condition met"}
{"Compound": "O=[N][99Tc]([Cl])([Cl])[Cl].c1ccc(-c2ccccn2)nc1 [[^99 Tc(NO)Cl3 (Bipy)]]", "Classification": "Condition met"}
{"Compound": "O=[N][Tc+][Cl].[C-]#[N+]C(C)(C)C.[C-]#[N+]C(C)(C)C.[C-]#[N+]C(C)(C)C.[C-]#[N+]C(C)(C)C [[^99 Tc(NO)Cl(t-BuCN)4]^+]", "Classification": "Condition not met"}

====

# Assay explanation: Animal biodistribution (in vivo, i.v. injection)
# Assay conditions: rats, 2 min p.i.
Friendly reminder: Kidney + Urine, % injected dose/organ below 7 % injected dose/organ is 1, at or above is -1.

{"Compound": "O=[N][99Tc-]([Cl])([Cl])([Cl])[Cl] [[^99m TcNOCl4]^-]", "Classification": 1}
{"Compound": "O=[N][99Tc]([Cl])([Cl])[Cl].c1ccc(-c2ccccn2)nc1 [[^99 Tc(NO)Cl3 (Bipy)]]", "Classification": -1}
{"Compound": "CC(=O)C=C(C)[O][99Tc-]([Cl])([Cl])([Cl])[N]=O [[^99 Tc(NO)Cl3 (acac)]^-]", "Classification": 1}
{"Compound": "CP(C)CCP(C)C.CP(C)CCP(C)C.N#[O+].[99Tc+].[Cl-].[Cl-]", "Classification": -1}
{"Compound": "O=[N][99Tc]1([Cl])([Cl])([Cl])[N]2C=CC=c3ccc4c(c32)[N]1C=CC=4 [[^99 Tc(NO)(1,10 phen)Cl3]°]", "Classification": 1}
